Measured glycan array binding signal (z-score), listed per entry.
target: Neu5Ac(a2-6)Gal(b1-4)GlcNAc(b1-3)Gal(b1-4)GlcNAc(b1-3)Gal(b1-4)GlcNAc(b1-2)Man(a1-3)[Neu5Ac(a2-6)Gal(b1-4)GlcNAc(b1-3)Gal(b1-4)GlcNAc(b1-3)Gal(b1-4)GlcNAc(b1-2)Man(a1-6)]GalNAc; assay: glycan array binding signal (z-score within array); higher = stronger binding; conditions: glycan notation: IUPAC condensed, linker removed
Shown is part of a subset that was picked to be rich in the strongest signals.
Number only, no unit.

binder	readout_label	reported_value
Gal 4 (Mus musculus), P56470 (protein) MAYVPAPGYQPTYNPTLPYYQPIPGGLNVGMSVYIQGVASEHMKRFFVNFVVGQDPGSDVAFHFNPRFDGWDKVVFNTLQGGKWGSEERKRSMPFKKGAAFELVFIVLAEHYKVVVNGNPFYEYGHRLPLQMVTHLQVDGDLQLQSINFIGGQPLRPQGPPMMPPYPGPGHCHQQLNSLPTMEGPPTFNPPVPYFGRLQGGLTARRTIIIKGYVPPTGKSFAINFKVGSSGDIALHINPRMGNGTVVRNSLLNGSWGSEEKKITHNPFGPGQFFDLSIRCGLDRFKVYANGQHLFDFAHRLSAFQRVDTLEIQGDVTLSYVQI	glycan array binding signal (z-score)	-0.294

INPUT: Field request: glycan array binding signal (z-score) | item: LlpA (Arthrobacter sp) (protein) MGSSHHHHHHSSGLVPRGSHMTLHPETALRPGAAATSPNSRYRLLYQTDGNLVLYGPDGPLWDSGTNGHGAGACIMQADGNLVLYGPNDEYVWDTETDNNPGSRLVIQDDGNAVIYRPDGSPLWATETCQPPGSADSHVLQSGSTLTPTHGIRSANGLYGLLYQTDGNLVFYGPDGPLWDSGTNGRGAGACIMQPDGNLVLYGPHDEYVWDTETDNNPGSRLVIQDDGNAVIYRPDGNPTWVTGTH
OUTPUT: 2.47
